# key: entry, value: TGI
- System: MDA-N
- Protocol notes: NCI tumour cell line growth inhibition, 48 h

# count of solved cases: 5
Inquiry: For the molecule COC(=O)/N=[N+](\[O-])C(c1ccc(OC)cc1)C1CCCCC1 (centres undefined) , give its reported TGI.
Reply text: 12 µM

Inquiry: Return reported TGI. Input molecule: CC(=O)OCC1=C(C)C(OC(=O)C(OC(C)=O)[C@@H](NC(=O)c2ccccc2)c2ccccc2)CCC1(C)C (some centres undefined)
Reply text: > 100 µM

Inquiry: Give TGI for `CN(C)c1ccc(N=Nc2ccccn2)cc1`
Reply text: > 100 µM

Inquiry: Assign TGI to the following record: `CCC(=O)O[C@H]1CC[C@H]2[C@@H]3CCC4=C/C(=N/NC(=O)c5cccc6c(=O)c7ccccc7[nH]c56)CC[C@]4(C)[C@H]3CC[C@]12C`
Reply text: > 25 µM

Inquiry: Respond only with TGI recorded for `CC(=O)Nc1ccc2[nH]c(-c3cccc(F)c3)cc(=O)c2c1`
Reply text: > 25.4 µM

Next:
Inquiry: Give the measured TGI for CC1C(=O)C(C)C(c2ccccc2)N(N=O)C1c1ccccc1 (centres undefined)
Reply text: 306 µM

Inquiry: Please indicate TGI recorded for C=C1C(=O)OC2C1CC(O)/C(C)=C\CCC1(C)OC21 (centres undefined)
Reply text: 36.2 µM

Inquiry: Give recorded TGI. `CCN(CC)C(=S)SS(=O)(=O)c1ccc([N+](=O)[O-])cc1`
Reply text: > 100 µM

* * *

- Tested on: SW-620 colon
- Protocol notes: NCI tumour cell line growth inhibition, 48 h
Quantity kind: TGI

Inquiry: Return TGI for the following compound: CCOP(=O)(OCC)C(NC(c1ccccc1)c1ccccc1)c1cccc2ccccc12 (centres undefined)
Reply text: 57.6 µM

Inquiry: Retrieve TGI measured for `O=C(CSCC(=O)N/N=C\c1ccc(-c2ccccc2)cc1)N/N=C\c1ccc(-c2ccccc2)cc1` and print it.
Reply text: 38.4 µM

Inquiry: Identify measured TGI corresponding to `Cc1ccc(Nc2cc(=O)[nH]c(=S)[nH]2)cc1`
Reply text: > 100 µM

Inquiry: Fill in reported TGI for this entry: `COc1ccc2oc3cccc(NCCN(C)C)c3c(=O)c2c1`
Reply text: 15.6 µM

Inquiry: Give TGI for `O=C1/C(=C/c2ccc(O)cc2)COc2ccc(-c3ccccc3)cc21`
Reply text: 8.06 µM

Inquiry: Return TGI (reported value) for this compound: Cc1cc2c(c(C=NCc3ccccc3)c1)OC1(C=C2)Oc2ccccc2C(=O)N1C (centres undefined)
Reply text: > 100 µM

Inquiry: Report TGI, nothing else, for this compound: `Cn1c(-c2cccs2)cc(-c2cccs2)c1-c1ccsc1`
Reply text: > 100 µM

Inquiry: Give me measured TGI, please, for this compound: `Cc1cc(=O)oc2cc3c(cc12)Oc1ccccc1O3`
Reply text: > 100 µM

Inquiry: Item `COc1ccc(-c2cc(N3CCN(c4ccccc4)CC3)c(C#N)c(=O)o2)cc1` : provide TGI
Reply text: > 100 µM

Inquiry: Query TGI for `S=c1[nH]c2ccc(Br)cc2c(=S)n1-c1ccccc1`
Reply text: > 100 µM

Others:
Inquiry: Given `CCOC(=O)/C=C(\C)c1ccc(OC)cc1` , respond with its TGI.
Reply text: > 100 µM

Inquiry: Report measured TGI; entry is COc1ccc(C(C#N)NNc2nc(C)cc(=O)[nH]2)cc1OC (centres undefined)
Reply text: > 100 µM

Inquiry: Return value of TGI for input `CCN(CC)C(=S)SS(=O)(=O)c1ccc([N+](=O)[O-])cc1` , no commentary.
Reply text: 37.1 µM

Inquiry: Tell me measured TGI for `CC1(C)N=C(N)N=C(N)N1c1cccc(OCCOc2ccc([N+](=O)[O-])cc2)c1` please.
Reply text: > 100 µM

* * *

- Tested on: XF 498 CNS
- Protocol notes: NCI tumour cell line growth inhibition, 48 h
Catalogue of TGI readings, one per entry.
Numbers only here, please. The scale is µM.

Example cases with answers are listed next.
Inquiry: Tell me TGI reported for `COc1cc(CNc2ccc(C(C)C)cc2)cc(OC)c1OC`
Reply text: 59

Inquiry: Complete the entry with TGI for `NC(=O)N1N=C2c3ccccc3SC[C@H]2[C@@H]1c1ccccc1`
Reply text: 56.8

Inquiry: Return value of TGI for input `COc1ccc2oc3cccc(NCCN(C)C)c3c(=O)c2c1` , no commentary.
Reply text: 28

Others:
Inquiry: Dear colleague, please send me the reported TGI for `Cn1nc(-c2ccccc2)c(C(=O)/C=C/c2ccccc2)c(N2CCOCC2)c1=O` when you can.
Reply text: 30.7

Inquiry: Please report TGI for the following compound: O=C(CN1CCN(c2ccccc2)CC1)N1CCc2c([nH]c3ccccc23)C1c1cccnc1 (stereo unspecified)
Reply text: 71.8

Inquiry: Give TGI for the following compound: `S=c1[nH]c2ccc(Br)cc2c(=S)n1-c1ccccc1`
Reply text: 36.6

* * *

- System: TK-10 renal
- Protocol notes: NCI tumour cell line growth inhibition, 48 h
Quantity kind: TGI (µM)
# number only, unit µM dropped from output

# annotated cases, reported TGI shown
Inquiry: Respond only with TGI recorded for `CC[n+]1c(/C=C/c2ccc(N(CCCl)CCCl)cc2)ccc2cc(NC(=O)/C=C/c3ccccc3)ccc21`
Reply text: 24.5

Inquiry: Read the entry `C1=C\CCCCN2C[C@H]3CCCC/C=C\CCCCN4CC[C@@H]([C@H](CCCCCC/1)C4)[C@H](C3)C2` and write its reported TGI.
Reply text: 5.8

# next molecule below
Inquiry: Give the reported value of TGI for this record: `ClCc1c(Cl)c(Cl)c(Cl)c(CCl)c1Cl`
Reply text: 2.89

* * *

- Test system: HCT-116 colon
- Protocol notes: NCI tumour cell line growth inhibition, 48 h
Quantity kind: TGI

Completed entries (count: 4):
Inquiry: # return recorded TGI for input `NCc1ccccc1C1CSCSC1`
Reply text: > 100 µM

Inquiry: Specify TGI for COc1cccc(NC(=O)CC(=O)N2N=C(C)C(N=Nc3ccc(S(=O)(=O)c4ccc(N=NC5C(=O)N(C(=O)CC(=O)Nc6cccc(OC)c6)N=C5C)cc4)cc3)C2=O)c1 (stereo not given) and stop.
Reply text: > 100 µM

Inquiry: Respond only with TGI recorded for `CCCCN(Cc1ccc(F)cc1)c1ccc(CO)c(Cl)c1`
Reply text: 13.2 µM

Inquiry: Please give the documented TGI of `CN(C)Cc1cc(N=Nc2ccccc2)cc(CN(C)C)c1O`
Reply text: > 100 µM

// moving on: another record for TGI
Inquiry: Give the measured TGI for `CC(C)CC1=[N+]=C(NC#N)N=C(CCC(=O)Nc2ccccc2[N+](=O)[O-])C1`
Reply text: > 100 µM

* * *

- System: SK-MEL-2 melanoma
- Protocol notes: NCI tumour cell line growth inhibition, 48 h
Quantity kind: TGI (µM)
Report only the number, with the unit µM understood.

Solved entries (count: 3):
Inquiry: Name the recorded TGI of the molecule listed here: `CCN(Cc1ccccc1OC)c1ccc(CO)c(Cl)c1`
Reply text: 10.9

Inquiry: Report TGI, nothing else, for this molecule: CC(=O)Nc1ccc2c3c(cc(O)c2c1)N(C(=O)CCCCC(=O)Nc1ccc2c4c(cc(O)c2c1)N(C(=O)OC(C)(C)C)CC4CCl)CC3CCl (stereo not given)
Reply text: 3.49

Inquiry: Output measured TGI for this item: `Brc1ccccc1-c1ncc(-c2ccccc2)o1`
Reply text: 89.9

Continuing:
Inquiry: Quote TGI reported for `C[C@@H]1CN(CC(=O)N2CC(C)(C)c3nc(CO)c(Cc4ccc(F)cc4)cc32)[C@@H](CN2CCOC[C@H]2C)CN1` please.
Reply text: 63.9

* * *

Quick reference: TGI of the listed items.
- Test system: SK-MEL-2 melanoma
- Protocol notes: NCI tumour cell line growth inhibition, 48 h

Inquiry: Quick one: give measured TGI for `Nc1nc2c(c(=O)[nH]1)CN(c1ccc(S(N)(=O)=O)cc1)CN2`
Reply text: > 100 µM

Inquiry: Give reported TGI value for CCC1C(c2cc(OC)c(OC)c(OC)c2)c2cc3c(cc2OC1N1CCOCC1)OCO3 (stereo unspecified)
Reply text: > 100 µM

---
Inquiry: Consider the compound CCC(CCCC[C@@H]1CC[C@H]2CC(=O)C[C@@H]12)OC (stereo partly specified) and give its recorded TGI.
Reply text: > 100 µM

Inquiry: Hello, please tell me recorded TGI for this one: `C=CC[C@H]1[C@H](O[Si](C)(C)C(C)(C)C)C=CC(=O)[C@@H]1CC(=O)N(Cc1ccccc1)Cc1ccccc1`
Reply text: 38.3 µM

Inquiry: // Input: `CCC(CC)n1c(C)nc2c1C(=O)c1ccccc1C2=O` . Output its TGI only.
Reply text: > 100 µM

Inquiry: For the compound CSC1=C(c2ccc(Cl)cc2)SC(N2CCCCC2)N1c1ccc([N+](=O)[O-])cc1 (stereo unspecified) , give its measured TGI value.
Reply text: 54.3 µM

Inquiry: Query TGI for `COc1cc[nH]c1/C=C1\C(=O)Nc2ccc(F)c(I)c21`
Reply text: > 25 µM

Inquiry: Specify reported TGI for the compound shown: `N#C/C(=C\c1cccc(O)c1)C(N)=O`
Reply text: > 100 µM

Inquiry: Fill in TGI for record CC(=O)NC1=C(C)C(=O)c2c(nc3n2CCC3O)C1=N (stereo unspecified)
Reply text: 22 µM

Inquiry: Return TGI (reported value) for this compound: Cc1ccc(C(O)c2cnc(C)n2Cc2ccccc2)cc1 (stereo unspecified)
Reply text: > 100 µM

Inquiry: Look up and report measured TGI for this entry: `CC/C=C\C/C=C\C/C=C\CCCCCCCC(=O)OCC`
Reply text: > 100 µM
